- Tested system: Nsp9 (SARS-CoV-2, UniProt P0DTD1)
- Assay comment: fluorescence polarisation
- Details: both partners purified
Readout kind: Kd

[Q] Name the recorded Kd of the binder listed here: FQGAWLGCPEPWEPLL (peptide, UniProt Q99466 1605-1620, looked up, also called NOTCH4 peptide) [NOTCH4_(1605–1620)]
[A] ~130 µM
